measuredOn: Senseless (Sens) (UniProt Q9N658 413-520)
Sequence (Q9N658 413-520): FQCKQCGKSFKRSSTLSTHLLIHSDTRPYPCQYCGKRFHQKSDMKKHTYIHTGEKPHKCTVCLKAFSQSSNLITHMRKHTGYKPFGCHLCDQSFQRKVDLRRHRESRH
experimentNotes: EMSA; Native PAGE EMSA, probe 0.36 uM, LI-COR imaging; protein amounts in ng; buffer, salt, pH and temperature not given (cited to refs 43, 64)
conditionDetails: protein: recombinant; tags: His
quantityMeasured: binding result

INSERT INTO results (binder, endpointvalue) VALUES
  ('RhoA-SM/SS (dsDNA) DNA 1: TCGTTGCAGTTGGTTGATTGACATTTTTATTATGCAGCACTGATTGA DNA 2: TCAATCAGTGCTGCATAATAAAAATGTCAATCAACCAACTGCAACGA', 'binds'),
  ('RhoA-PSSS (strong Pax2 and Sens sites) (dsDNA) DNA 1: TCGTCACGGTGCACTGATTGACATTTTTATTATGCATATTCGCTGGT DNA 2: ACCAGCGAATATGCATAATAAAAATGTCAATCAGTGCACCGTGACGA', 'binds'),
  ('RhoA-SM/SWT (dsDNA) DNA 1: TCGTTGCAGTTGGTTGATTGACATTTTTATTATGCATCATTGATTGA DNA 2: TCAATCAATGATGCATAATAAAAATGTCAATCAACCAACTGCAACGA', 'binds');
